biological target: T1, human IL-15Rα (human, UniProt Q13261 31-205, limits assumed); test: SPR, steady state
T1 construct: also called hIL-15Rα; IL-15 receptor alpha
T1 sequence (Q13261 31-205 limits assumed): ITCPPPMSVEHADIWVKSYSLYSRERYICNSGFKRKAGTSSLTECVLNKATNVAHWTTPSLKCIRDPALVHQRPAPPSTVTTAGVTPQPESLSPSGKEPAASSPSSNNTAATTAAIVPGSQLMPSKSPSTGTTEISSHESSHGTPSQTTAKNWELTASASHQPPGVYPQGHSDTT
Measured quantity: Kd (nM)

Below are worked cases with known answers.
# Binder, Measured quantity, Measured result
rows = [
    ("hIL-15 V49R/K10R (ligand) NWVNVISDLRKIEDLIQSMHIDATLYTESDVHPSCKVTAMKCFLLELQRISLESGDASIHDTVENLIILANNSLSSNGNVTESGCKECEELEEKNIKEFLQSFVHIVQMFINTGGGGSGHHHHHHHHGGGLNDIFEAQKIEWHE", "Kd", 94.5),
    ("hIL-15 V49R/N65K (ligand) NWVNVISDLKKIEDLIQSMHIDATLYTESDVHPSCKVTAMKCFLLELQRISLESGDASIHDTVEKLIILANNSLSSNGNVTESGCKECEELEEKNIKEFLQSFVHIVQMFINTGGGGSGHHHHHHHHGGGLNDIFEAQKIEWHE", "Kd", 201),
    ("hIL-15 V49R/M109D (ligand) NWVNVISDLKKIEDLIQSMHIDATLYTESDVHPSCKVTAMKCFLLELQRISLESGDASIHDTVENLIILANNSLSSNGNVTESGCKECEELEEKNIKEFLQSFVHIVQDFINTGGGGSGHHHHHHHHGGGLNDIFEAQKIEWHE", "Kd", 288),
]

A. hIL-15 V49R/K11W (ligand) NWVNVISDLKWIEDLIQSMHIDATLYTESDVHPSCKVTAMKCFLLELQRISLESGDASIHDTVENLIILANNSLSSNGNVTESGCKECEELEEKNIKEFLQSFVHIVQMFINTGGGGSGHHHHHHHHGGGLNDIFEAQKIEWHE
B. hIL-15 V49R/H32E (ligand) NWVNVISDLKKIEDLIQSMHIDATLYTESDVEPSCKVTAMKCFLLELQRISLESGDASIHDTVENLIILANNSLSSNGNVTESGCKECEELEEKNIKEFLQSFVHIVQMFINTGGGGSGHHHHHHHHGGGLNDIFEAQKIEWHE
QUERY: Higher Kd: A or B ? Indicate which entry you chose by stating its label.
RESULT: A
(A: 361 nM, B: 108 nM)

1. hIL-15 V49R/N1A (ligand) AWVNVISDLKKIEDLIQSMHIDATLYTESDVHPSCKVTAMKCFLLELQRISLESGDASIHDTVENLIILANNSLSSNGNVTESGCKECEELEEKNIKEFLQSFVHIVQMFINTGGGGSGHHHHHHHHGGGLNDIFEAQKIEWHE
2. hIL-15 V49R/H32Q (ligand) NWVNVISDLKKIEDLIQSMHIDATLYTESDVQPSCKVTAMKCFLLELQRISLESGDASIHDTVENLIILANNSLSSNGNVTESGCKECEELEEKNIKEFLQSFVHIVQMFINTGGGGSGHHHHHHHHGGGLNDIFEAQKIEWHE
QUERY: Two entries are listed, 1 and 2 . Which one carries the higher Kd? API: response body contains the label of the selected item.
RESULT: 1

P. hIL-15 V49R/H32I (ligand) NWVNVISDLKKIEDLIQSMHIDATLYTESDVIPSCKVTAMKCFLLELQRISLESGDASIHDTVENLIILANNSLSSNGNVTESGCKECEELEEKNIKEFLQSFVHIVQMFINTGGGGSGHHHHHHHHGGGLNDIFEAQKIEWHE
Q. hIL-15 V49R/L69E (ligand) NWVNVISDLKKIEDLIQSMHIDATLYTESDVHPSCKVTAMKCFLLELQRISLESGDASIHDTVENLIIEANNSLSSNGNVTESGCKECEELEEKNIKEFLQSFVHIVQMFINTGGGGSGHHHHHHHHGGGLNDIFEAQKIEWHE
QUERY: Among P and Q , whose measured Kd is the smaller figure? Respond using the label that marks the chosen record.
RESULT: Q

I. hIL-15 V49R/D30N (ligand) NWVNVISDLKKIEDLIQSMHIDATLYTESNVHPSCKVTAMKCFLLELQRISLESGDASIHDTVENLIILANNSLSSNGNVTESGCKECEELEEKNIKEFLQSFVHIVQMFINTGGGGSGHHHHHHHHGGGLNDIFEAQKIEWHE
II. hIL-15 V49R/K11R (ligand) NWVNVISDLKRIEDLIQSMHIDATLYTESDVHPSCKVTAMKCFLLELQRISLESGDASIHDTVENLIILANNSLSSNGNVTESGCKECEELEEKNIKEFLQSFVHIVQMFINTGGGGSGHHHHHHHHGGGLNDIFEAQKIEWHE
QUERY: Quick one: lower Kd, I or II ? Answer format: the label of the selected item.
RESULT: I

1. hIL-15 V49R/E64H (ligand) NWVNVISDLKKIEDLIQSMHIDATLYTESDVHPSCKVTAMKCFLLELQRISLESGDASIHDTVHNLIILANNSLSSNGNVTESGCKECEELEEKNIKEFLQSFVHIVQMFINTGGGGSGHHHHHHHHGGGLNDIFEAQKIEWHE
2. hIL-15 V49R/I111A (ligand) NWVNVISDLKKIEDLIQSMHIDATLYTESDVHPSCKVTAMKCFLLELQRISLESGDASIHDTVENLIILANNSLSSNGNVTESGCKECEELEEKNIKEFLQSFVHIVQMFANTGGGGSGHHHHHHHHGGGLNDIFEAQKIEWHE
QUERY: Consider 1 and 2 . Which of these has its Kd at a higher number? Label of pick, please.
RESULT: 2
(2: 173 nM, 1: 112 nM)
